- assay.comment: Quantitative High-Throughput drug screen in 47 multiple myeloma cell lines against the NCATS MIPE library collection: INA6_PLB cell viability assay (AID 1918965; note: nearly all actives have a fitted effect of over 55% in size)
- test.context: INA6 myeloma viability, CellTiter-Glo ATP luminescence, 48 h; series mostly up to 45.8 µM
Results filed as inconclusive are left out. Calls of active or inactive are those of the source. Calls come from the whole dose curve; as a rule, active = well fitted cell-killing curve with a large enough effect; inconclusive = small, poorly fitted or top-dose-only effect, or effect the other way; inactive = no such curve, though single readings can be large or run the other way.
Possible outcomes: Yes for active, No for inactive

>  <molecule>
c1ccc(CCCN2CCN(CCOC(c3ccccc3)c3ccccc3)CC2)cc1

>  <class.label>
Yes

$$$$
>  <molecule>
COc1cc([C@@H]2c3cc4c(cc3[C@@H](O)C3COC(=O)C32)OCO4)cc(OC)c1O (stereo partly specified)

>  <class.label>
Yes

$$$$
>  <molecule>
CC(=O)N(C)c1cccc(-c2ccnc3c(C(=O)c4cccs4)cnn23)c1

>  <class.label>
Yes

$$$$
>  <molecule>
CC(C)(O)C(=O)Nc1ccc([N+](=O)[O-])c(C(F)(F)F)c1

>  <class.label>
Yes

$$$$
>  <molecule>
COC1=C[C@@H]2[C@@H]3Cc4ccc(OC)c(O)c4[C@]2(CCN3C)CC1=O

>  <class.label>
Yes

$$$$
>  <molecule>
CC[C@H]1C=CC=CC[C@@H](C)[C@H](O)[C@@](C)(O)C(=O)[C@@H](C)[C@H](O)[C@@H](C)C(=O)[C@@H](C)[C@H](O)[C@@H](C)C=CC(=O)O[C@@H]2[C@@H](C)[C@H](CC1)O[C@]1(CC[C@H](C)[C@H](C[C@@H](C)O)O1)[C@H]2C

>  <class.label>
Yes

$$$$
>  <molecule>
C[C@]12Cc3cn[nH]c3C[C@@H]1CC[C@@H]1[C@H]2CC[C@@]2(C)[C@H]1CC[C@]2(C)O

>  <class.label>
No

$$$$
>  <molecule>
C[C@H]([C@H](O)CCC(C)(C)O)[C@H]1CC[C@@]2(O)C3=CC(=O)[C@@H]4C[C@@H](O)[C@@H](O)C[C@]4(C)[C@@H]3CC[C@]12C

>  <class.label>
No

$$$$
>  <molecule>
Oc1ccc2c3c1O[C@H]1c4[nH]c5c(c4C[C@@]4(O)[C@@H](C2)N(CC2CC2)CC[C@]314)C[C@@]1(O)[C@H]2Cc3ccc(O)c4c3[C@@]1(CCN2CC1CC1)[C@H]5O4

>  <class.label>
No

$$$$
>  <molecule>
CCCCCC[C@H]1C(=O)O[C@H](C)[C@H](NC(=O)c2cccc(NC=O)c2O)C(=O)O[C@@H](C)[C@@H]1OC(=O)CC(C)C

>  <class.label>
Yes

$$$$
>  <molecule>
O=C(NCC1CCOCC1)c1cnc(Nc2ccc(Cl)cc2Cl)nc1C(F)(F)F

>  <class.label>
Yes

$$$$
>  <molecule>
C[C@]12CC[C@H]3[C@@H](CCC4=CC(=O)CC[C@@]43C)[C@H]1CC[C@H]2O

>  <class.label>
No

$$$$
>  <molecule>
Cc1ccccc1-n1c(Cn2ncc3c(N)ncnc32)nc2cccc(C)c2c1=O

>  <class.label>
Yes

$$$$
>  <molecule>
COCC1(CO)C(=O)C2CCN1CC2 (stereo unspecified)

>  <class.label>
Yes

$$$$
>  <molecule>
CN1[C@H]2CC(O)C[C@H]1[C@H]1O[C@H]12 (stereo partly specified)

>  <class.label>
Yes

$$$$
>  <molecule>
CC1(N2CCC(n3c([C@@H]4CCCNC4)nc4ccccc43)CC2)CCCCCCC1

>  <class.label>
Yes

$$$$
>  <molecule>
CC1=C(O)C(=O)C=C2C1=CC=C1[C@@]2(C)CC[C@@]2(C)[C@@H]3C[C@](C)(C(=O)O)CC[C@]3(C)CC[C@]12C

>  <class.label>
Yes

$$$$
>  <molecule>
O=C1CCC[C@@H]2[C@H]3CCCN4CCC[C@@H](CN12)[C@@H]34

>  <class.label>
No

$$$$
>  <molecule>
C=CCON=C(C[C@H]1O[C@@H]2O[C@]3(C)CC[C@@H]4[C@H](C)CC[C@@H]([C@H]1C)[C@@]24OO3)[C@H]1O[C@@H]2O[C@]3(C)CC[C@H]4[C@H](C)CC[C@@H]([C@@H]1C)[C@@]24OO3

>  <class.label>
Yes

$$$$
>  <molecule>
CCCC[N+]1(C)[C@H]2CC(OC(=O)[C@H](CO)c3ccccc3)C[C@H]1[C@H]1O[C@H]12 (stereo partly specified)

>  <class.label>
Yes

$$$$
>  <molecule>
c1ccc2c(CN3CCNCC3)cccc2c1

>  <class.label>
No

$$$$
>  <molecule>
CN1CCN(c2ccc([N+](=O)[O-])c3no[n+]([O-])c23)CC1

>  <class.label>
Yes

$$$$
>  <molecule>
CO[C@H]1CCC(O[C@H]2C[C@H]([C@]3(C)CC[C@]4(C[C@H](O)[C@@H](C)[C@@H]([C@@H](C)C=C(C)C(=O)[C@H](C)C[C@H](C)C(=O)O)O4)O3)O[C@]3(O[C@@H]([C@H]4O[C@@](O)(CO)[C@H](C)C[C@H]4C)C[C@H]3C)[C@H]2C)O[C@H]1C (stereo partly specified)

>  <class.label>
Yes

$$$$
>  <molecule>
CC(=O)O[C@@]12CO[C@H]1C[C@H](O)[C@@]1(C)C(=O)[C@H](O)C3=C(C)[C@@H](O)C[C@@](O)([C@@H](OC(=O)c4ccccc4)[C@@H]21)C3(C)C

>  <class.label>
Yes

$$$$
>  <molecule>
C=C1C[C@H]2[C@H]3CCC(=O)[C@@]3(C)CC[C@@H]2[C@@]2(C)C=CC(=O)C=C12

>  <class.label>
Yes

$$$$
>  <molecule>
COc1cc2cc(c1Cl)N(C)C(=O)C[C@H](OC(=O)C(C)C)[C@]1(C)O[C@H]1[C@H](C)[C@@H]1C[C@@](O)(NC(=O)O1)[C@H](OC)C=CC=C(C)C2

>  <class.label>
No

$$$$
>  <molecule>
COC[C@H]1OC(=O)c2coc3c2[C@@]1(C)C1=C(C3=O)[C@@H]2CC[C@H](O)[C@@]2(C)C[C@@H]1OC(C)=O

>  <class.label>
Yes

$$$$
>  <molecule>
O=C(Oc1ccc([N+](=O)[O-])cc1)N1CCC(C(O)(c2ccc3c(c2)OCO3)c2ccc3c(c2)OCO3)CC1

>  <class.label>
Yes

$$$$
>  <molecule>
CC1=NN=C(c2ccc(N)cc2)c2cc3c(cc2C1)OCO3

>  <class.label>
No

$$$$
>  <molecule>
C#CC1(O)CCC2C3CCC4=CC(=O)CCC4(C)C3CCC21C (stereo unspecified)

>  <class.label>
No

$$$$
>  <molecule>
C[C@H]1CCCC=CC2C[C@H](O)C[C@@H]2[C@H](O)C=CC(=O)O1 (stereo partly specified)

>  <class.label>
No

$$$$
